# Run Description: Fraction unbound in Beagle dog plasma at 0.5 mg/kg, iv administered as single dose
# Type: ADME, organism-based, Canis lupus familiaris
Endpoint Name: fraction unbound

a = Cn1c(=O)n(CC(C)(C)C)c2ccc(N3C[C@@H]4CC[C@H]3CN4C(=O)c3ccon3)nc21
b = Cn1c(=O)n(CC(C)(C)C)c2ccc(C3=C[C@@H]4CC[C@H]3CN4C(=O)c3ccon3)nc21
q: # returns the entry with the larger fraction unbound; inputs a and b Which one? Tell me its label.
a: a
(a: 0.08, b: 0.02)

====

# Assay Target: Metabotropic glutamate receptor 2 (Homo sapiens, UniProt Q14416)
# Run Description: Agonist activity at recombinant human mGlu2 receptor expressed in CHO cells assessed as potentiation of glutamate-induced effect preincubated for 5 mins followed by glutamate stimulation for 3 mins by Fluo-4AM staining-based FLIPR assay
# Type: cell-based
# Sequence (Q14416 whole entry): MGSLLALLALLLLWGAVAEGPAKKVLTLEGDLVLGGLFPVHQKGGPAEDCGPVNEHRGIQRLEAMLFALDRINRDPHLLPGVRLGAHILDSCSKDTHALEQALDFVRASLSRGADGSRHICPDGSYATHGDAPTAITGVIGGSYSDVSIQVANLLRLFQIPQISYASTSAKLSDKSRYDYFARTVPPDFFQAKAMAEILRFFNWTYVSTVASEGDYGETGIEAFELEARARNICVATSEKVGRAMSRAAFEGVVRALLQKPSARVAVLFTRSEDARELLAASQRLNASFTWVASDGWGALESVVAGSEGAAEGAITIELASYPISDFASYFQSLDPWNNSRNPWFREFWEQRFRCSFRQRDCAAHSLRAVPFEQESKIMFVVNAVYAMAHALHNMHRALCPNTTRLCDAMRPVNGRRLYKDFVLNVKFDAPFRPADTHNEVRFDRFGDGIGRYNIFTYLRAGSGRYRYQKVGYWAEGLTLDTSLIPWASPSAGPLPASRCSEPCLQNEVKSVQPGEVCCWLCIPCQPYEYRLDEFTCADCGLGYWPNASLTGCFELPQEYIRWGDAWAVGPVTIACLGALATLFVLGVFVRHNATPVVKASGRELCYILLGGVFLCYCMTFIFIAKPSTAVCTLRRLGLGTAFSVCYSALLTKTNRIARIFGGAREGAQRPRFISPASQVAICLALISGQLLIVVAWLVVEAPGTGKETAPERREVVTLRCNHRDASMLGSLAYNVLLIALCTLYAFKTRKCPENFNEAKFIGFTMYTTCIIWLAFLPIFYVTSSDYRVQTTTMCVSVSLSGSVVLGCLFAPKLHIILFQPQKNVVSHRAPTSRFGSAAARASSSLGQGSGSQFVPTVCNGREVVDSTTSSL
Endpoint Name: EC50 (nM)

>  <Smi>
Cn1c(=O)n(CC(C)(C)C)c2ccc(N3C[C@@H]4CC[C@H]3CN4C(=O)c3csnn3)nc21

>  <Assay Target>
Metabotropic glutamate receptor 2 (Homo sapiens, UniProt Q14416)

>  <Endpoint Name>
EC50

>  <Unit Of Measurement>
nM

>  <Endpoint Result>
637

$$$$
>  <Smi>
Cn1c(=O)n(CC(C)(C)C)c2ccc(N3C[C@@H]4CC[C@H]3CN4C(=O)c3ccon3)nc21

>  <Assay Target>
Metabotropic glutamate receptor 2 (Homo sapiens, UniProt Q14416)

>  <Endpoint Name>
EC50

>  <Unit Of Measurement>
nM

>  <Endpoint Result>
668

$$$$

====

# Test system: P-gp
# Run Description: Substrate activity at rat P-gp assessed as apparent permeability
# Assay type: ADME
# Condition Notes: not told
Endpoint Name: Papp (×10⁻⁶ cm/s)

>  <Smi>
Cn1c(=O)n(CC(C)(C)C)c2ccc(N3C[C@@H]4CC[C@H]3CN4C(=O)c3ccon3)nc21

>  <Assay Target>
P-gp

>  <Unit Of Measurement>
×10⁻⁶ cm/s

>  <Papp>
31

$$$$
>  <Smi>
Cn1c(=O)n(CC(C)(C)C)c2ccc(N3C[C@@H]4CC[C@H]3CN4C(=O)c3csnn3)nc21

>  <Assay Target>
P-gp

>  <Unit Of Measurement>
×10⁻⁶ cm/s

>  <Papp>
30

$$$$

====

Quick reference: EC50 of the listed items.
# Assay Target: Metabotropic glutamate receptor 4 (Homo sapiens)
# Sequence (Q14833 whole entry): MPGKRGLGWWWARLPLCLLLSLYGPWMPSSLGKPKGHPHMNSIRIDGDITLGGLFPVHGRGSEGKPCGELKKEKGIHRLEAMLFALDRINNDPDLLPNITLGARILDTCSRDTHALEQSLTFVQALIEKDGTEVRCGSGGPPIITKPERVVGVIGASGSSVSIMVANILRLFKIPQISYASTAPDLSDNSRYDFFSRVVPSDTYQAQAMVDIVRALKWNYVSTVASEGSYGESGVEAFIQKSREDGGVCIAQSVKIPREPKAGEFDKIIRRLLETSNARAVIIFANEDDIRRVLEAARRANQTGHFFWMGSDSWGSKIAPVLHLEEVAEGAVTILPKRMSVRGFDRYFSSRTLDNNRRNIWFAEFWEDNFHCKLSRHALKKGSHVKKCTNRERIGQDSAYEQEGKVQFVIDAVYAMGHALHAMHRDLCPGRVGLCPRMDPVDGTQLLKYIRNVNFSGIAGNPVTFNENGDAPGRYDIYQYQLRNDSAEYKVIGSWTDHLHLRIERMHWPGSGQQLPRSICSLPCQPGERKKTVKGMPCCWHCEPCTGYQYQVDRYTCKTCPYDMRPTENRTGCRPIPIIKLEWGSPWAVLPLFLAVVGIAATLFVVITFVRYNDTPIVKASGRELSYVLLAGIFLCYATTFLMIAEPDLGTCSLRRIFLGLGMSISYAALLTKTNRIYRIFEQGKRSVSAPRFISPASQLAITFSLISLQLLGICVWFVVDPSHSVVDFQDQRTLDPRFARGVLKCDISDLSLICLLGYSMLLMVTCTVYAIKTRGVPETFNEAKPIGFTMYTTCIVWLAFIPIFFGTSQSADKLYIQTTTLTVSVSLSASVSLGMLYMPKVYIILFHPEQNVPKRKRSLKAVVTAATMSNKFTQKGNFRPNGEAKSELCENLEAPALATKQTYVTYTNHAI
# Run Description: Positive allosteric modulation of mGlu4 receptor (unknown origin)

>  <Molecule>
Cn1c(=O)n(CC(C)(C)C)c2ccc(N3C[C@@H]4CC[C@H]3CN4C(=O)c3csnn3)nc21

>  <Endpoint Result>
> 30 µM

$$$$
>  <Molecule>
Cn1c(=O)n(CC(C)(C)C)c2ccc(N3CCCC4CCCCC43)nc21 (mixture of isomers)

>  <Endpoint Result>
> 30 µM

$$$$
>  <Molecule>
Cn1c(=O)n(CC(C)(C)C)c2ccc(N3CC4CCC3CN4C(=O)OC(C)(C)C)nc21 (racemic)

>  <Endpoint Result>
> 30 µM

$$$$

q: Any idea what its EC50 is? The molecule is `Cn1c(=O)n(CC(C)(C)C)c2ccc(C3=C[C@@H]4CC[C@H]3CN4C(=O)c3ccon3)nc21`
a: > 30 µM

====

# Assay Target: Metabotropic glutamate receptor 2 (Homo sapiens, UniProt Q14416)
# Run Description: Positive allosteric modulation of recombinant human mGlu2 receptor expressed in CHO cells assessed as potentiation of glutamate-induced effect preincubated for 5 mins followed by glutamate stimulation for 3 mins by Fluo-4AM staining-based FLIPR assay
# Assay type: cell-based
Endpoint Name: %max (%)

>  <Compound>
Cn1c(=O)n(CC(C)(C)C)c2ccc(N3CCCc4ccccc43)nc21

>  <%max [%]>
60

$$$$
>  <Compound>
Cn1c(=O)n(CC(C)(C)C)c2ccc(N3CCCCC3)nc21

>  <%max [%]>
87

$$$$
>  <Compound>
Cn1c(=O)n(CC(C)(C)C)c2ccc(N3CC4CCC3CN4C(=O)OC(C)(C)C)nc21 (racemic)

>  <%max [%]>
70

$$$$
>  <Compound>
Cn1c(=O)n(CC(C)(C)C)c2ccc(N3CC4CCC3CN4c3ncccn3)nc21 (racemic)

>  <%max [%]>
65

$$$$
>  <Compound>
Cn1c(=O)n(CC(C)(C)C)c2ccc(C3=C[C@@H]4CC[C@H]3CN4C(=O)c3ccon3)nc21

>  <%max [%]>
78

$$$$
>  <Compound>
Cc1cc(CN2CC3CCC2CN3c2ccc3c(n2)n(C)c(=O)n3CC(C)(C)C)no1 (racemic)

>  <%max [%]>
74

$$$$
>  <Compound>
Cn1c(=O)n(CC(C)(C)C)c2ccc(N3C[C@@H]4CC[C@H]3CN4C(=O)c3csnn3)nc21

>  <%max [%]>
72

$$$$
>  <Compound>
Cn1c(=O)n(CC(C)(C)C)c2ccc(N3CC4CCC3CN4)nc21 (racemic)

>  <%max [%]>
71

$$$$
>  <Compound>
Cn1c(=O)n(CC(C)(C)C)c2ccc(N3C[C@@H]4CC[C@H]3CN4C(=O)c3ccon3)nc21

>  <%max [%]>
78

$$$$

====

# Assay Target: UniProtKB P08684
# Sequence (P08684 whole entry): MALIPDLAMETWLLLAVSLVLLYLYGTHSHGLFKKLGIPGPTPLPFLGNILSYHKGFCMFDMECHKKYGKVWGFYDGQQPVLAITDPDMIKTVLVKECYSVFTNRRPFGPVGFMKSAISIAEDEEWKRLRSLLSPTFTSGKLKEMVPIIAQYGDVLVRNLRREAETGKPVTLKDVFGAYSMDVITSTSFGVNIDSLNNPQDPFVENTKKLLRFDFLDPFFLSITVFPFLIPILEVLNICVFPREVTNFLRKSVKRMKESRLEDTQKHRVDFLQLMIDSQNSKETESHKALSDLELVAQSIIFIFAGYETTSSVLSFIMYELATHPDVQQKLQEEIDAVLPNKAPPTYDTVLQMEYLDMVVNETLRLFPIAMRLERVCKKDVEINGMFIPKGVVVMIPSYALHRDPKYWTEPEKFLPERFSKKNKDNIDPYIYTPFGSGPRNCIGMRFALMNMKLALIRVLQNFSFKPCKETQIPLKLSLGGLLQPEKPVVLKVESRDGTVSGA
# Run Description: Time dependent inhibition of CYP3A4 in human liver microsomes
Endpoint Name: Ki (nM)
State just the number; it will be interpreted in nM.

q: Any idea what its Ki is? The compound is `Cn1c(=O)n(CC(C)(C)C)c2ccc(N3C[C@@H]4CC[C@H]3CN4C(=O)c3ccon3)nc21`
a: 540

====

# Assay Target: Metabotropic glutamate receptor 2 (Homo sapiens, UniProt Q14416)
# Run Description: Positive allosteric modulation of recombinant human mGlu2 receptor expressed in CHO cells assessed as potentiation of glutamate-induced effect preincubated for 5 mins followed by glutamate stimulation for 3 mins by Fluo-4AM staining-based FLIPR assay
# Format: cell-based
pEC50: −log10 of the molar value.
Endpoint Name: pEC50

a = Cn1c(=O)n(CC(C)(C)C)c2ccc(N3CC4CCC3CN4C(=O)c3cccnc3)nc21 (racemic)
b = Cn1c(=O)n(CC(C)(C)C)c2ccc(C3CCN(C(=O)c4ccon4)CC3)nc21
c = Cn1c(=O)n(CC(C)(C)C)c2ccc(N3C[C@@H]4CC[C@H]3CN4C(=O)c3ccon3)nc21
q: Rank by pEC50 (largest to smallest). // rank by listing labels in the order requested
a: c, a, b

====

# Assay Target: Metabotropic glutamate receptor 2 (Homo sapiens)
# Run Description: Positive allosteric modulation of recombinant human mGlu2 receptor expressed in CHO cells assessed as potentiation of glutamate-induced effect preincubated for 5 mins followed by glutamate stimulation for 3 mins by Fluo-4AM staining-based FLIPR assay
# Type: cell-based
pEC50: −log10 of the molar value.
Endpoint Name: pEC50

Solved entries:
>  <Compound>
Cn1c(=O)n(CC(C)(C)C)c2ccc(N3CCCC4CCCCC43)nc21 (mixture of isomers)

>  <Assay Target>
Metabotropic glutamate receptor 2 (Homo sapiens)

>  <Endpoint Result>
5.66

$$$$
>  <Compound>
Cn1c(=O)n(CC(C)(C)C)c2ccc(N3C[C@@H]4CC[C@H]3CN4C(=O)c3csnn3)nc21

>  <Assay Target>
Metabotropic glutamate receptor 2 (Homo sapiens)

>  <Endpoint Result>
7.54

$$$$

1 = Cn1c(=O)n(CC(C)(C)C)c2ccc(N3CC4CCC3CN4C(=O)c3ccccc3)nc21 (racemic)
2 = Cc1cc(CN2CC3CCC2CN3c2ccc3c(n2)n(C)c(=O)n3CC(C)(C)C)no1 (racemic)
q: Of 1 and 2 , which carries the smaller reported pEC50 figure? Which one? Tell me its label.
a: 2

====

# System: Plasma
# Run Description: Plasma concentration in Sprague-Dawley rat at 10 mg/kg, po
# Format: ADME, organism-based
# Condition Notes: in vivo
Endpoint Name: concentration (µM)
State just the number; it will be interpreted in µM.

q: # value lookup — system Plasma, readout concentration, item `Cn1c(=O)n(CC(C)(C)C)c2ccc(N3C[C@@H]4CC[C@H]3CN4C(=O)c3ccon3)nc21`
a: 3.2

====

# Assay Target: Metabotropic glutamate receptor 6 (Homo sapiens)
# Sequence (O15303 whole entry): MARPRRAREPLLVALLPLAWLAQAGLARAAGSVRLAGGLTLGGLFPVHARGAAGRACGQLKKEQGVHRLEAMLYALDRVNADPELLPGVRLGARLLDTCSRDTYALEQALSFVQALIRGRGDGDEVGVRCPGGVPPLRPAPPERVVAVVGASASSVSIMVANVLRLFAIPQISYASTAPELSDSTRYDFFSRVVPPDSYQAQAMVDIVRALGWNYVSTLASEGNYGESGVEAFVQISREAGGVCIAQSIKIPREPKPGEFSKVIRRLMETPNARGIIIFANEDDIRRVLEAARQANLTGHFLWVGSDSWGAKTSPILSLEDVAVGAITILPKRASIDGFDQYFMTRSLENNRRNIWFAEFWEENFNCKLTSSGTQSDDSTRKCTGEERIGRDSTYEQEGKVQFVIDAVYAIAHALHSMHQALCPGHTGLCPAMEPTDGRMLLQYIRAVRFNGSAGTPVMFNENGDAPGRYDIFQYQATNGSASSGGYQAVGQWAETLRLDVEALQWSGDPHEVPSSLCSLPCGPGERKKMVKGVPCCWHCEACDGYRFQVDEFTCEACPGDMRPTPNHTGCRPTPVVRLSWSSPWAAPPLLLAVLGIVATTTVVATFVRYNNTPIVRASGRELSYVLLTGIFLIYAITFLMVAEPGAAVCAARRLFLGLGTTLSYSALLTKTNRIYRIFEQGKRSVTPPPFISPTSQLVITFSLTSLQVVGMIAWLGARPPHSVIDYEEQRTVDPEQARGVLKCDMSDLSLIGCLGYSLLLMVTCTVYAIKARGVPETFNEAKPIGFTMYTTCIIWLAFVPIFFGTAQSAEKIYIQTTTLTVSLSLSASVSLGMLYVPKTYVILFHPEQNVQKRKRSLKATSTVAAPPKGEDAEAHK
# Run Description: Positive allosteric modulation of mGlu6 receptor (unknown origin)
Endpoint Name: EC50

Solved entries:
>  <Compound>
Cn1c(=O)n(CC(C)(C)C)c2ccc(N3CCCc4ccccc43)nc21

>  <EC50>
> 30 µM

$$$$
>  <Compound>
Cn1c(=O)n(CC(C)(C)C)c2ccc(N3CC4CCC3CN4)nc21 (racemic)

>  <EC50>
> 30 µM

$$$$
>  <Compound>
Cn1c(=O)n(CC(C)(C)C)c2ccc(N3CC4CCC3CN4C(=O)OC(C)(C)C)nc21 (racemic)

>  <EC50>
> 30 µM

$$$$

q: Any idea what its EC50 is? The compound is `Cn1c(=O)n(CC(C)(C)C)c2ccc(N3C[C@@H]4CC[C@H]3CN4C(=O)c3csnn3)nc21`
a: > 30 µM

q: Any idea what its EC50 is? The compound is `Cn1c(=O)n(CC(C)(C)C)c2ccc(N3C[C@@H]4CC[C@H]3CN4C(=O)c3ccon3)nc21`
a: > 30 µM
